The listing below reports pIC50 for compounds tested on 5-HT1A serotonin receptor (Rattus norvegicus).
Sequence (P19327 whole entry): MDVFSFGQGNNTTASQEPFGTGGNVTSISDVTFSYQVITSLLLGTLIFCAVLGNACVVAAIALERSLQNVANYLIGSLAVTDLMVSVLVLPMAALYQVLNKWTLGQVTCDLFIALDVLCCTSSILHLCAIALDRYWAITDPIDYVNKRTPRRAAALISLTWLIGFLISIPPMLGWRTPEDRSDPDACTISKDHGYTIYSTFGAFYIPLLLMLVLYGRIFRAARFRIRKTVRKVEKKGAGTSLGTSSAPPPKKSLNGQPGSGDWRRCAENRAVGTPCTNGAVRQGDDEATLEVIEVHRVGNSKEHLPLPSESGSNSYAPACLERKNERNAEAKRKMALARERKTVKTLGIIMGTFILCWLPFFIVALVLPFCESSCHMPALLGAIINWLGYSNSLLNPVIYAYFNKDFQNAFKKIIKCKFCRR
# pIC50 is unitless: minus log10 of the molar concentration; print number only

Which pIC50 value belongs to "C[C@H](CN1CCc2c([nH]c3ccccc23)C1)N(C(=O)C12CC3CC(CC(C3)C1)C2)c1ccccn1" ?
7.49

---
Which pIC50 value belongs to "C[C@H](CN1CCc2c([nH]c3ccccc23)C1)N(C(=O)C1CCCCC1)c1ccccn1" ?
7.46
